conditions: enterocloster bolteae, 12 h, 2 µM
measured endpoint: Bacterial Biotransformation

compound	result
CNS(=O)(=O)Cc1ccc2[nH]cc(CCN(C)C)c2c1.O=C(O)CCC(=O)O [SUMATRIPTAN SUCCINATE]	Compound NOT metabolized
C=C[C@H]1CN2CC[C@H]1C[C@H]2[C@H](O)c1ccnc2ccc(OC)cc12.C=C[C@H]1CN2CC[C@H]1C[C@H]2[C@H](O)c1ccnc2ccc(OC)cc12.O.O.O=S(=O)(O)O [QUININE SULFATE]	Compound NOT metabolized

----------
settings: victivallis vadensis, 12 h, 2 µM
measured endpoint: Bacterial Biotransformation

compound	result
COc1ccc(CN2CCNCC2)c(OC)c1OC.Cl.Cl [TRIMETAZIDINE DIHYDROCHLORIDE]	Compound NOT metabolized
CC(C)c1nc(N(C)S(C)(=O)=O)nc(-c2ccc(F)cc2)c1/C=C/[C@@H](O)C[C@@H](O)CC(=O)[O-].CC(C)c1nc(N(C)S(C)(=O)=O)nc(-c2ccc(F)cc2)c1/C=C/[C@@H](O)C[C@@H](O)CC(=O)[O-].[Ca+2]	Compound NOT metabolized
CCOc1cc(CC(=O)N[C@@H](CC(C)C)c2ccccc2N2CCCCC2)ccc1C(=O)O [REPAGLINIDE]	Compound NOT metabolized

----------
assay: The drug is tested on Anaerococcus hydrogenalis strain: DSM7454 for biotransformation. The drug concentrations were measured before and after a 12-h incubation by liquid-chromatography-coupled mass spectrometry (LC–MS); settings: 2 µM
measured endpoint: Bacterial Biotransformation

molecule	measured endpoint	result
CC(C)c1nc(N(C)S(C)(=O)=O)nc(-c2ccc(F)cc2)c1/C=C/[C@@H](O)C[C@@H](O)CC(=O)[O-].CC(C)c1nc(N(C)S(C)(=O)=O)nc(-c2ccc(F)cc2)c1/C=C/[C@@H](O)C[C@@H](O)CC(=O)[O-].[Ca+2] [ROSUVASTATIN CALCIUM]	Bacterial Biotransformation	Compound NOT metabolized
C#C[C@]1(OC(C)=O)CC[C@H]2[C@@H]3CCC4=C/C(=N/O)CC[C@@H]4[C@H]3CC[C@@]21CC [NORGESTIMATE]	Bacterial Biotransformation	Compound NOT metabolized
CC(C)(C)NC(=O)[C@H]1CC[C@H]2[C@@H]3CC[C@H]4NC(=O)C=C[C@]4(C)[C@H]3CC[C@]12C [FINASTERIDE]	Bacterial Biotransformation	Compound NOT metabolized

----------
experiment: The drug is tested on Ruminococcus gnavus strain: ATCC29149 for biotransformation. The drug concentrations were measured before and after a 12-h incubation by liquid-chromatography-coupled mass spectrometry (LC–MS); settings: mediterraneibacter gnavus, 2 µM

compound	Bacterial Biotransformation
COc1cc2nc(N3CCN(C(=O)C4CCCO4)CC3)nc(N)c2cc1OC (centres undefined)	Compound NOT metabolized
COc1cc(NC(C)CCCN)c2ncccc2c1.O=P(O)(O)O.O=P(O)(O)O (centres undefined) [PRIMAQUINE PHOSPHATE]	Compound NOT metabolized
COc1ccc([C@@H]2Sc3ccccc3N(CCN(C)C)C(=O)[C@@H]2OC(C)=O)cc1	Compound NOT metabolized

----------
experiment: The drug is tested on Anaerococcus hydrogenalis strain: DSM7454 for biotransformation. The drug concentrations were measured before and after a 12-h incubation by liquid-chromatography-coupled mass spectrometry (LC–MS); conditions: 2 µM
measured endpoint: Bacterial Biotransformation

compound	Bacterial Biotransformation
CN(CCOc1ccc(CC2SC(=O)NC2=O)cc1)c1ccccn1.O=C(O)/C=C\C(=O)O (configuration not stated) [ROSIGLITAZONE MALEATE]	Compound NOT metabolized
CCN(C)C(=O)Oc1cccc([C@H](C)N(C)C)c1.O=C(O)C(O)C(O)C(=O)O [RIVASTIGMINE TARTRATE]	Compound NOT metabolized
COc1ccc2c(c1OC)C(=O)O[C@@H]2[C@H]1c2c(cc3c(c2OC)OCO3)CCN1C	Compound metabolized
CN(C)CCc1c[nH]c2ccc(Cn3cncn3)cc12.O=C(O)c1ccccc1 [RIZATRIPTAN BENZOATE]	Compound NOT metabolized

Ask: Fill in: Bacterial Biotransformation of O=C1NCC2(CCN(CCc3ccccc3)CC2)O1 [FENSPIRIDE] is ___
Result: Compound NOT metabolized

Ask: Bacterial Biotransformation lookup needed for CN(C)C(=O)Oc1cc(OC(=O)N(C)C)cc(C(O)CNC(C)(C)C)c1 (configuration not stated) , thanks.
Result: Compound NOT metabolized

Ask: Please give the measured Bacterial Biotransformation for this compound: CCCCCNC(=N)N/N=C/c1c[nH]c2ccc(OC)cc12.O=C(O)/C=C\C(=O)O [TEGASEROD MALEATE]
Result: Compound NOT metabolized

----------
conditions: bacteroides fragilis, 12 h, 2 µM
measured endpoint: Bacterial Biotransformation

molecule	measured endpoint	result
C#C[C@]1(OC(C)=O)CC[C@H]2[C@@H]3CCC4=CC(=O)CC[C@@H]4[C@H]3CC[C@@]21C [NORETHINDRONE ACETATE]	Bacterial Biotransformation	Compound metabolized
COC1=C(OC)C(=O)C(CCCCCCCCCCO)=C(C)C1=O	Bacterial Biotransformation	Compound metabolized
CC[C@@H](CO)NC(=O)[C@@H]1C=C2c3cccc4c3c(cn4C)C[C@H]2N(C)C1.O=C(O)/C=C\C(=O)O [METHYSERGIDE MALEATE]	Bacterial Biotransformation	Compound metabolized

----------
experiment: The drug is tested on Clostridium sporogenes strain: ATCC15579 for biotransformation. The drug concentrations were measured before and after a 12-h incubation by liquid-chromatography-coupled mass spectrometry (LC–MS); details: 2 µM
measured endpoint: Bacterial Biotransformation

Field: example entries. Status: answers known.
compound	result
Br.NC(=O)C(c1ccccc1)(c1ccccc1)[C@@H]1CCN(CCc2ccc3c(c2)CCO3)C1 [DARIFENACIN HYDROBROMIDE]	Compound NOT metabolized
CCOC(=O)C1=C(C)NC(C)=C(C(=O)OC)C1c1cccc([N+](=O)[O-])c1 (centres undefined)	Compound metabolized
N[C@@H](Cc1ccc(N(CCCl)CCCl)cc1)C(=O)O	Compound metabolized
COc1cc2nc(N(C)CCCNC(=O)C3CCCO3)nc(N)c2cc1OC (centres undefined)	Compound NOT metabolized

Ask: Which Bacterial Biotransformation value is on record for COc1ccccc1OCC(O)COC(N)=O (centres undefined) ?
Result: Compound NOT metabolized

Ask: Look at this compound and give its reported Bacterial Biotransformation. O=C1[C@H](CC[C@H](O)c2ccc(F)cc2)[C@@H](c2ccc(O)cc2)N1c1ccc(F)cc1
Result: Compound metabolized

Ask: Any idea what Bacterial Biotransformation was measured for CC(C)NCC(O)c1ccc(NS(C)(=O)=O)cc1 (centres undefined) ?
Result: Compound NOT metabolized

Ask: State the recorded Bacterial Biotransformation for this entry: CN(C)CCOC(c1ccc(Cl)cc1)c1ccccn1.O=C(O)/C=C\C(=O)O (centres undefined) [CARBINOXAMINE MALEATE]
Result: Compound NOT metabolized

Ask: // query Bacterial Biotransformation value for entry CC(=O)Oc1ccc(C(c2ccc(OC(C)=O)cc2)c2ccccn2)cc1
Result: Compound metabolized

----------
test: The drug is tested on Anaerococcus hydrogenalis strain: DSM7454 for biotransformation. The drug concentrations were measured before and after a 12-h incubation by liquid-chromatography-coupled mass spectrometry (LC–MS); settings: 2 µM
measured endpoint: Bacterial Biotransformation

molecule	Bacterial Biotransformation
COc1cc2nc(N3CCN(C(=O)c4ccco4)CC3)nc(N)c2cc1OC	Compound NOT metabolized
O=C([O-])C[C@H](O)C[C@H](O)/C=C/c1c(C2CC2)nc2ccccc2c1-c1ccc(F)cc1.O=C([O-])C[C@H](O)C[C@H](O)/C=C/c1c(C2CC2)nc2ccccc2c1-c1ccc(F)cc1.[Ca+2]	Compound NOT metabolized
COc1ccnc(C[S+]([O-])c2nc3ccc(OC(F)F)cc3[nH]2)c1OC (stereo unspecified)	Compound metabolized
CN1CCC[C@@H]1CCO[C@](C)(c1ccccc1)c1ccc(Cl)cc1.O=C(O)/C=C/C(=O)O [CLEMASTINE FUMARATE]	Compound NOT metabolized
CC1Cc2ccccc2N1NC(=O)c1ccc(Cl)c(S(N)(=O)=O)c1 (stereo unspecified) [INDAPAMIDE]	Compound NOT metabolized
CS(=O)(=O)O.OC(CCN1CCCCC1)(c1ccccc1)c1ccccc1 [PRIDINOL METHANESULFONATE]	Compound NOT metabolized
c1ccc([C@H]2CN3CCSC3=N2)cc1	Compound metabolized
CC(C)[C@H]1CC[C@H](C(=O)N[C@H](Cc2ccccc2)C(=O)O)CC1 [NATEGLINIDE]	Compound NOT metabolized

Ask: Using the record for c1ccc2[nH]c(-c3cscn3)nc2c1 , report its Bacterial Biotransformation.
Result: Compound NOT metabolized

Ask: # get_value(readout='Bacterial Biotransformation', item= CCOC(=O)[C@H](CCc1ccccc1)N[C@@H](C)C(=O)N1[C@H](C(=O)O)C[C@H]2CCCC[C@@H]21 )
Result: Compound metabolized

Ask: Fill blank: measured Bacterial Biotransformation of the molecule COc1cc2nc(N3CCN(C(=O)C4CCCO4)CC3)nc(N)c2cc1OC (stereo unspecified) is ____.
Result: Compound NOT metabolized

Ask: Param item = CCOC(=O)[C@H](CCc1ccccc1)N[C@@H](C)C(=O)N1CCC[C@H]1C(=O)O.O=C(O)/C=C\C(=O)O [ENALAPRIL MALEATE] ; retrieve measured Bacterial Biotransformation.
Result: Compound NOT metabolized

Ask: Name the reported Bacterial Biotransformation value associated with the molecule O=C(CCCN1CCC2(CC1)C(=O)NCN2c1ccccc1)c1ccc(F)cc1
Result: Compound NOT metabolized

Ask: Data request, read-out Bacterial Biotransformation, for CN(C)C(=O)Oc1cccc([N+](C)(C)C)c1.[Br-] [NEOSTIGMINE BROMIDE]
Result: Compound NOT metabolized

Ask: // query Bacterial Biotransformation value for entry O=C(O)CCC(=O)O.O=C(O[C@H]1CN2CCC1CC2)N1CCc2ccccc2[C@@H]1c1ccccc1 [SOLIFENACIN SUCCINATE]
Result: Compound NOT metabolized

Ask: Which Bacterial Biotransformation reading was recorded for the molecule CCN(CC)CCOC(=O)C1(C2CCCCC2)CCCCC1 ?
Result: Compound NOT metabolized
